assay_target: α-Glucosidase from Saccharomyces cerevisiae (EC 3.2.1.20) (Saccharomyces cerevisiae)
Construct: purchased Sigma-Aldrich
Sequence (P53341 whole entry): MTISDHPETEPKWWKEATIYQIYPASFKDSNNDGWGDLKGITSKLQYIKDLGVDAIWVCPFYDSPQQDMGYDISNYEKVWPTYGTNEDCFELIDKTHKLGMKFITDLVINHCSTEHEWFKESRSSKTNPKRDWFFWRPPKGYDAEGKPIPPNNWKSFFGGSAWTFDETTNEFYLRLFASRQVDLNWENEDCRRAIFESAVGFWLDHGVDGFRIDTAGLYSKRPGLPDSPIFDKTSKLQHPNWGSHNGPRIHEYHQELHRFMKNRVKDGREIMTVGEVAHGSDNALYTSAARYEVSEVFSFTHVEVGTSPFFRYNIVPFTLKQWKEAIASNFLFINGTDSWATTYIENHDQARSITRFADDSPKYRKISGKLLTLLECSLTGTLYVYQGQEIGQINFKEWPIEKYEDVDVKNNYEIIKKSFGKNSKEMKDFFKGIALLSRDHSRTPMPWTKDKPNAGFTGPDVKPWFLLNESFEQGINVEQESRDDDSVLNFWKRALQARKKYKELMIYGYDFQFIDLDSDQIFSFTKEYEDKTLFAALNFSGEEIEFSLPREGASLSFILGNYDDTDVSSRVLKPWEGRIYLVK
experiment_notes: α-Glucosidase inhibition kinetics (v vs. enzyme concentration, Lineweaver-Burk plots)
Assay type: biochemical
particulars: inhibition constant, free enzyme; secondary plot of slope vs. compound concentration; read-out: KI
parameter: Ki (µM)
Numbers only, in µM.

Task item: // lookup Ki for O=C(/C=C/c1ccc(F)cc1F)c1cc2ccccc2oc1=O
Reply: 19.5
